Biological target: CIB1 and αIIb interaction (CIB1-GST : F-αIIb peptide) (Homo sapiens, UniProt Q99828)
Construct: made in house; host or cells: BL-21 plus RIL cells (E. coli)
Sequence (Q99828 whole entry): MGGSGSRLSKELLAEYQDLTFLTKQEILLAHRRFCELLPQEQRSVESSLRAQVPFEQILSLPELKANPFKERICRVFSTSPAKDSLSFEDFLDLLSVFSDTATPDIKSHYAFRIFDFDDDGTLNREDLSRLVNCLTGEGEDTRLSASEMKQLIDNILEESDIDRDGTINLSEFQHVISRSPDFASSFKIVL
Test: FP assay, 1536-well qHTS format (primary and confirmatory screen)
Format: binding
Details: confirmatory screen; read-out: IC50 [μM] (confirmatory screen)

>  <MOLECULE>
O=c1cc(-c2ccccc2)oc2cc(O)c(O)c(O)c12

>  <IC50>
39.8 µM

$$$$
>  <MOLECULE>
C=C1C(OC(=O)/C(C)=C\C)[C@@]23CCC4[C@@](C)(CCC[C@@]4(C)C(=O)O)C2CC[C@H]1C3OC(C)=O (stereo partly shown)

>  <IC50>
31.6 µM

$$$$
>  <MOLECULE>
C[C@H](Cc1ccc(O)c(O)c1)[C@@H](C)Cc1ccc(O)c(O)c1

>  <IC50>
39.8 µM

$$$$
>  <MOLECULE>
C=C1C(=O)O[C@@H]2[C@H]3C(C)=CC(=O)C3=C(C)[C@@H](OC(=O)/C(C)=C\C)[C@H](O)[C@@H]12

>  <IC50>
1.6 µM

$$$$
>  <MOLECULE>
CCN1C(=O)c2ccccc2[S+]([O-])c2ccc(C(=O)NCc3cccc(F)c3)cc21 (stereo not shown)

>  <IC50>
50.1 µM

$$$$
>  <MOLECULE>
CC(=O)NC(Cc1c[nH]c2ccccc(=O)c12)C(=O)O (stereo not shown)

>  <IC50>
44.7 µM

$$$$
>  <MOLECULE>
NC[C@@H](O)c1ccc(O)c(O)c1.O=C(O)C(O)C(O)C(=O)O

>  <IC50>
44.7 µM

$$$$
>  <MOLECULE>
CCN1CCN(c2cccc(Nc3nn4c(=O)c5ccccc5nc4s3)c2)CC1.Cl

>  <IC50>
44.7 µM

$$$$
>  <MOLECULE>
COc1nc2ccc(Br)cc2cc1[C@@H](c1ccccc1)[C@@](O)(CCN(C)C)c1cccc2ccccc12

>  <IC50>
89.1 µM

$$$$
>  <MOLECULE>
COc1ccc2c(c[n+](C)c3c4cc5c(cc4ccc23)OCO5)c1OC.[Cl-]

>  <IC50>
11.2 µM

$$$$
>  <MOLECULE>
C=C(CC)C(=O)c1ccc(OCC(=O)O)c(Cl)c1Cl

>  <IC50>
44.7 µM

$$$$
>  <MOLECULE>
O=C(O)CSc1cc(NS(=O)(=O)c2ccc(Br)cc2)c2ccccc2c1O

>  <IC50>
12.6 µM

$$$$
>  <MOLECULE>
Cl.O=C1c2c(O)ccc(O)c2C(=O)c2c(NCCNCCO)ccc(NCCNCCO)c21

>  <IC50>
20 µM

$$$$
>  <MOLECULE>
CC1=C[C@@H]2[C@H]([C@@H](O)C[C@@]3(C)[C@H]2C[C@@H](C)[C@]3(O)C(=O)CO)[C@@]2(C)Cc3cnn(-c4ccccc4)c3C=C12

>  <IC50>
15.8 µM

$$$$
>  <MOLECULE>
O=C(O)C(F)(F)F.O=C(c1ccc(F)cc1)c1no[n+]([O-])c1C(=O)c1ccc(F)cc1

>  <IC50>
12.6 µM

$$$$
>  <MOLECULE>
Cc1ccc2nc3sc(C(=O)NCc4ccco4)cc3cc2c1.O=C(O)C(F)(F)F

>  <IC50>
15.8 µM

$$$$
>  <MOLECULE>
C=CCNc1oc(-c2ccc(Cl)cc2)nc1C#N.O=C(O)C(F)(F)F

>  <IC50>
31.6 µM

$$$$
>  <MOLECULE>
CCOC(=O)CC(SP(=S)(OC)OC)C(=O)OCC (stereo not shown)

>  <IC50>
100 µM

$$$$
>  <MOLECULE>
O=c1[nH]c(=O)c2nc3ccccc3nc2[nH]1

>  <IC50>
44.7 µM

$$$$
>  <MOLECULE>
O=C1NC(c2ccc(N3CCOCC3)cc2)(c2ccsc2)CC(O)=C1Sc1ccccc1Cl (stereo not shown)

>  <IC50>
44.7 µM

$$$$
>  <MOLECULE>
Nc1ccc(CNc2ccc(S(=O)(=O)Nc3nccs3)cc2)c(O)c1.O=C(O)C(F)(F)F

>  <IC50>
89.1 µM

$$$$
>  <MOLECULE>
O=C(O)C(F)(F)F.c1ccc(-n2ccc(-c3nnc4n3CCCCC4)c2)cc1

>  <IC50>
50.1 µM

$$$$
>  <MOLECULE>
CNc1ccc(C(=O)Oc2cc(ON=[N+]([O-])N(C)C)c([N+](=O)[O-])cc2[N+](=O)[O-])cc1

>  <IC50>
14.1 µM

$$$$
>  <MOLECULE>
CCOC(=O)c1[nH]c2c(c1C)C(=S)CC(c1ccco1)C2.O=C(O)C(F)(F)F (stereo not shown)

>  <IC50>
35.5 µM

$$$$
>  <MOLECULE>
CNc1ccc([N+](=O)[O-])c(Nc2ccc3[nH]ncc3c2)n1

>  <IC50>
2.8 µM

$$$$
>  <MOLECULE>
Cc1ccccc1C(=O)N1CCc2cc(-c3nc(NC(=O)Cc4ccc(OCCOCCOCCN)cc4)sc3C)ccc21.O=C(O)C(F)(F)F

>  <IC50>
39.8 µM

$$$$
>  <MOLECULE>
O=C(c1ccccc1)c1no[n+]([O-])c1C(=O)c1ccccc1

>  <IC50>
31.6 µM

$$$$
>  <MOLECULE>
O=c1nc(-c2ccccn2)sc2ccccc12

>  <IC50>
44.7 µM

$$$$
>  <MOLECULE>
O=C(Nc1nc(-c2ccccc2)cs1)c1ccncc1NS(=O)(=O)c1cccs1.O=C(O)C(F)(F)F

>  <IC50>
25.1 µM

$$$$
>  <MOLECULE>
N#Cc1ccc(NS(=O)(=O)c2ccc(Nc3nc(-c4ccccc4)cs3)cc2)cc1.O=C(O)C(F)(F)F

>  <IC50>
44.7 µM

$$$$
>  <MOLECULE>
CCN(CC)CCN(Cc1ccc(-c2ccc(C(F)(F)F)cc2)cc1)C(=O)Cn1c(SCc2ccc(F)cc2)nc(=O)c2c1CCC2

>  <IC50>
35.5 µM

$$$$

###

Molecular target: CIB1 and αIIb interaction (CIB1-GST : F-αIIb peptide) (Homo sapiens, UniProt Q99828)
Construct: made in house; host or cells: BL-21 plus RIL cells (E. coli)
Assay: FP assay, 1536-well qHTS format (primary and confirmatory screen)
Assay type: binding
Conditions: qHTS primary screen hits, Table S2; read-out: IC50
Field: label. Allowed values: 1 (yes) (IC50 < 60 µM) or 0 (no) (IC50 >= 60 µM).

>  <SMILES NOTATION>
CCN1CCN(c2cccc(Nc3nn4c(=O)c5ccccc5nc4s3)c2)CC1.Cl

>  <ASSIGNED CLASS>
1 (yes)

$$$$
>  <SMILES NOTATION>
Fc1cc(Nc2nc(-c3ccncc3)nc3ccccc23)ccc1N1CCNCC1.O=C(O)C(F)(F)F

>  <ASSIGNED CLASS>
0 (no)

$$$$
>  <SMILES NOTATION>
Cc1nc(CNc2ncnc3ccc(-c4ccc(CO)o4)cc23)cs1.O=C(O)C(F)(F)F

>  <ASSIGNED CLASS>
1 (yes)

$$$$
>  <SMILES NOTATION>
O=C(O)C(F)(F)F.O=C1CCCC2=C1C1(CCCCC1)N=C(Nc1nc3ccccc3o1)N2

>  <ASSIGNED CLASS>
1 (yes)

$$$$
>  <SMILES NOTATION>
COC(=O)c1scc2c(O)cc(C(F)(F)F)nc12

>  <ASSIGNED CLASS>
1 (yes)

$$$$
>  <SMILES NOTATION>
CS(=O)(=O)c1ccc(C(=O)OCC(=O)N2CCN(CCC3CCCCC3)CC2)cc1[N+](=O)[O-].O=C(O)C(F)(F)F

>  <ASSIGNED CLASS>
1 (yes)

$$$$
>  <SMILES NOTATION>
CCCCCCCCCCCCCCCC[N+](C)(C)CC.[Br-]

>  <ASSIGNED CLASS>
0 (no)

$$$$
>  <SMILES NOTATION>
NC(=O)c1ccc(O)c2ncccc12

>  <ASSIGNED CLASS>
1 (yes)

$$$$
>  <SMILES NOTATION>
COc1ccc2c(c1)c(CC(=O)O)c(C)n2Cc1ccc(Cl)cc1

>  <ASSIGNED CLASS>
1 (yes)

$$$$
>  <SMILES NOTATION>
CCCCCCCc1ccc(CCc2cccc(O)c2C(=O)O)cc1

>  <ASSIGNED CLASS>
1 (yes)

$$$$
>  <SMILES NOTATION>
CCOC(=O)c1c(-c2ccc(C)o2)csc1NC(=O)CSc1nnnn1-c1ccccc1.O=C(O)C(F)(F)F

>  <ASSIGNED CLASS>
1 (yes)

$$$$
>  <SMILES NOTATION>
CSc1ccc(/C=C2/C(C)=C(CC(=O)O)c3cc(F)ccc32)cc1

>  <ASSIGNED CLASS>
0 (no)

$$$$
>  <SMILES NOTATION>
CC(C)c1ccccc1Cc1cc(C(=O)Nc2ccc(S(=O)(=O)c3ccccc3C(C)(C)C)cc2)c(O)c(O)c1O

>  <ASSIGNED CLASS>
1 (yes)

$$$$
>  <SMILES NOTATION>
CCCCCCCCCCCCCCCC[n+]1ccccc1.[Br-]

>  <ASSIGNED CLASS>
0 (no)

$$$$
>  <SMILES NOTATION>
COc1cc(NS(=O)(=O)c2ccc([N+](=O)[O-])cc2)c2ncccc2c1

>  <ASSIGNED CLASS>
1 (yes)

$$$$
>  <SMILES NOTATION>
CN(C)[C@@H]1C(=O)C(C(=O)NCN2CCCC2)=C(O)[C@@]2(O)C(=O)C3=C(O)c4c(O)cccc4[C@@](C)(O)[C@H]3C[C@@H]12

>  <ASSIGNED CLASS>
1 (yes)

$$$$
